System: influenza A/PR/8/34
protocol_summary: microbe, parasite or virus in culture
Format: cell-based, avian H1N1 influenza A virus (A/PuertoRico/8/34)
settings: Influenza A virus, PR/8, MDCK, read-out: IC50, viral plaque inhibition
measured_attribute: pIC50
// scale note: pIC50 = -log10(conc_M); give the bare number

Kindly note the recorded pIC50 for C[C@@H](NC(=O)c1nc(-c2cnccn2)[nH]c(=O)c1O)c1ccccc1 , which is 4.90

Kindly note the recorded pIC50 for CC(NC(=O)c1nc(-c2cnccn2)[nH]c(=O)c1O)c1ccccc1 (stereo not shown) , which is 4.85

Kindly note the recorded pIC50 for C[C@H](NC(=O)c1nc(-c2cnccn2)[nH]c(=O)c1O)c1ccccc1 , which is 4.73

Kindly note the recorded pIC50 for O=C(O)/C(O)=C/C(=O)C1(Cc2ccc(Cl)cc2)CCN(Cc2ccccc2)CC1 [Compound 2, reference compound] , which is 5.50

====

Test system: influenza A/PR/8/34
protocol_summary: microbe, parasite or virus in culture
Format: cell-based, avian H1N1 influenza A virus (A/PuertoRico/8/34)
settings: Influenza A virus, PR/8, MDCK, read-out: IC50, viral plaque inhibition
measured_attribute: IC50

COC(=O)/C(O)=C/C(=O)c1ccccc1 [Compound 16, reference compound] :: > 100 µM
O=C(NCCc1ccccc1)c1nc(-c2cnccn2)[nH]c(=O)c1O :: > 100 µM

Kindly note the recorded IC50 for O=C(O)c1nc(-c2cnccn2)nc(O)c1O , which is > 50 µM
